assay: Volume distribution was evaluated after i.v. administration in rat at a dose of 1 mg/kg; format: ADME, organism-based; parameters: dose 1 mg/kg, route intravenous; settings: in vivo, iv
metricName: Vd (L/kg)

INSERT INTO measurements (compoundstructure, u, reportedresult) VALUES
  ('CCNC(=O)N[C@@H]1CCN(c2cccc3c2CCO3)C1', 'L/kg', 0.7);

----------
Some compounds, each annotated with its measured pKi.
target: UniProt P48039
Sequence (P48039 whole entry): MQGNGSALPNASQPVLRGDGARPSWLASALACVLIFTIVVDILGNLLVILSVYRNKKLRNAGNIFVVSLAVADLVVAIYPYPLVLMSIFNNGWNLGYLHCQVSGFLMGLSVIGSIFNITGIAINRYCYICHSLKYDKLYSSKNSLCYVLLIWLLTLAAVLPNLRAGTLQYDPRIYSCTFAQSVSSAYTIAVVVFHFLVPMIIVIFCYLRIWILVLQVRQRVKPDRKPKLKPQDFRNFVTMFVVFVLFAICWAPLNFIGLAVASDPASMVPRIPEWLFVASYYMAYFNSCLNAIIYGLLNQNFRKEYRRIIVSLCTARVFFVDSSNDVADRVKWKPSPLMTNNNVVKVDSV
pKi: −log10 of the molar value.
metricName: pKi

INSERT INTO measurements (compoundstructure, metricname, reportedresult) VALUES
  ('O=C(N[C@@H]1CCN(c2cccc3c2CCO3)C1)C1CC1', 'pKi', 8.41),
  ('CCC(=O)N[C@@H]1CCN(c2cccc3c2CCO3)C1', 'pKi', 7.31),
  ('CC(C)C(=O)N[C@H]1CCN(c2cccc3c2CCO3)C1', 'pKi', 8.22),
  ('O=C(NC1CC1)N[C@@H]1CCN(c2cccc3c2CCO3)C1', 'pKi', 8.18);

Provenance of the data: ChEMBL document CHEMBL1136485
